- system-name: PCSK9 (Homo sapiens, UniProt Q8NBP7, G670E/V474I)
- Sequence (Q8NBP7 with tags, fused parts or gaps V474I/G670E): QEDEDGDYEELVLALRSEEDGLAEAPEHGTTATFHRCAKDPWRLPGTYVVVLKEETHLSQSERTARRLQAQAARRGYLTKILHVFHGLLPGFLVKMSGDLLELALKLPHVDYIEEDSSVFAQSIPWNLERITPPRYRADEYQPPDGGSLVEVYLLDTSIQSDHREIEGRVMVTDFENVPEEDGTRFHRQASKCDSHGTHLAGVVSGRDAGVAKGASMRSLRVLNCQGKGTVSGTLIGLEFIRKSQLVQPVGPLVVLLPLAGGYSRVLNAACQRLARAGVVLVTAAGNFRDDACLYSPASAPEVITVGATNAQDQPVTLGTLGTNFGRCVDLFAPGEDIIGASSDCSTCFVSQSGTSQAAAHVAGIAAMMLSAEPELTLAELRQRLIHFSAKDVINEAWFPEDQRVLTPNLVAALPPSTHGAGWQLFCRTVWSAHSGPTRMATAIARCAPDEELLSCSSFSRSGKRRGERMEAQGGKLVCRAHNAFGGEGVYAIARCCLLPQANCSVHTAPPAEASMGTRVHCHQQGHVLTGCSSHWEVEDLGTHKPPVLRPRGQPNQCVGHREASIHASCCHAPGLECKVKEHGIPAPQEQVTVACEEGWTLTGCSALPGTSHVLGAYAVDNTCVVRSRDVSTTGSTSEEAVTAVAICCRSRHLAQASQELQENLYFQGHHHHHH
- assay: biochemical
Collected IC50 values appear next to each entry.
Number only, in nM; omit the unit.

Please review the following examples before continuing.
* Cn1cccc(-c2cnc(N[C@H]3CC[C@H](Nc4ncc(C5CC5)nn4)C3)cn2)c1=O | 41
* Cc1cnc(N[C@H]2CC[C@H](Nc3ccc(-n4cc(-c5c[nH]nn5)ccc4=O)cn3)C2)nn1 | 6.5
* Cc1cnc(N[C@H]2CC[C@H](Nc3ccc(-n4cccc(OC(F)F)c4=O)cn3)C2)nn1 | 2.1

Now let's try a different one.
q: Dear colleague, I am looking for the recorded IC50 of the following compound: Cc1cnc(N[C@H]2CC[C@H](Nc3ccc(-n4nccc(Cl)c4=O)cn3)C2)nn1
a: 1.6

----------
Collected EC50 values appear next to each entry.
- system-name: PCSK9 (Homo sapiens, UniProt Q8NBP7, G670E/V474I)
- assay: Assay 3 PCSK9 LDL-C uptake assay in HepG2 cells
- particulars: 125 nM PCSK9, pHrodo Red-LDL, read-out: Assay 3 LDL uptake potency
Number only, in nM; omit the unit.

- Cc1cnc(N[C@H]2CC[C@H](Nc3ccc(-n4c(=O)n(C)c5cccnc54)cn3)C2)nn1: 100
- Cn1c(=O)n(-c2ccc(N[C@H]3CC[C@H](Nc4ncc(C5CC5)nn4)C3)nc2)c2cc(C#N)ccc21: 100
- CNC(=O)c1cnc(N[C@H]2CC[C@H](Nc3ccc(-n4ccccc4=O)cn3)C2)nn1: 700
- Cc1cnc(N[C@H]2CC[C@H](Nc3ccc(-n4cccc(-c5cn[nH]c5)c4=O)cn3)C2)nn1: 100
- O=c1c(OC(F)(F)F)cccn1-c1ccc(N[C@H]2CC[C@H](Nc3ncc(C4CC4)nn3)C2)nc1: 100

q: Please provide the recorded EC50 for O=c1ccc(-c2cn[nH]c2)cn1-c1ccc(N[C@H]2CC[C@H](Nc3ncc(C4CC4)nn3)C2)nc1 , tested on PCSK9 (Homo sapiens, UniProt Q8NBP7, G670E/V474I).
a: 100

q: Please provide the recorded EC50 for O=C(NC1COC1)c1cnc(N[C@H]2CC[C@H](Nc3ccc(-n4cc(Cl)ccc4=O)cn3)C2)nn1 , tested on PCSK9 (Homo sapiens, UniProt Q8NBP7, G670E/V474I).
a: 200

----------
Measurement record for GSK3β (Glycogen synthase kinase-3 beta) (Homo sapiens); quantity recorded: IC50.

Please review the following examples before continuing.
• Cc1cnc(N[C@H]2CC[C@H](Nc3ccc(-n4ccc(C#N)cc4=O)cn3)C2)nn1 = > 10 µM
• Cc1cnc(N[C@H]2CC[C@H](Nc3ccc(-c4nc(C)oc4C)cn3)C2)nn1 = > 10 µM
• O=c1ccncn1-c1cnc(N[C@H]2CC[C@H](Nc3ncc(C4CC4)nn3)C2)nc1 = > 10 µM
• Cc1cnc(N[C@H]2CC[C@H](Nc3ccc(-n4cccc(-c5c[nH]nn5)c4=O)cn3)C2)nn1 = > 10 µM

q: Dear colleague, I am looking for the recorded IC50 of the following compound: Cn1cccc(-c2cnc(N[C@H]3CC[C@H](Nc4ncc(C5CC5)nn4)C3)cn2)c1=O
a: > 10 µM

q: Dear colleague, I am looking for the recorded IC50 of the following compound: Cc1cnc(N[C@H]2CC[C@H](Nc3ccc(-n4cc(-c5cnn(C)c5)ccc4=O)cn3)C2)nn1
a: 2.38 µM

q: Dear colleague, I am looking for the recorded IC50 of the following compound: Cc1cnc(N[C@H]2CC[C@H](Nc3ccc(-n4cc(OC(F)F)ccc4=O)cn3)C2)nn1
a: 2.42 µM

q: Dear colleague, I am looking for the recorded IC50 of the following compound: Cc1nnc(N[C@H]2CC[C@H](Nc3ccc(-n4ccccc4=O)cn3)C2)nc1C
a: > 10 µM

q: Dear colleague, I am looking for the recorded IC50 of the following compound: Cc1cnc(N[C@H]2CC[C@H](Nc3ccc(-n4cccc(Cl)c4=O)cn3)C2)nn1
a: 4.85 µM

src = patent US20240228469A1
